Data origin: ChEMBL document CHEMBL2203041

- ASSAY_REMARKS: in vitro
- PROTOCOL_CONDITIONS: human, HepG2 cells
- Description: Cytotoxicity against human HepG2 cells assessed as cell viability at 3 uM after 24 hrs by MTT assay relative to control
# key: entry, value: viability at 24 h, 3 µM
Value expressed in %; do not type the unit.

Below, 3 compounds whose answers are already recorded.
COMPOUND | viability at 24 h, 3 µM, %
COc1cc(C2c3ccc4ccccc4c3Oc3nc4c(c(N)c32)CCCC4)cc(OC)c1OC (racemic) | 95.6
Nc1c2c(nc3c1C(c1ccc(Cl)c(Cl)c1)c1ccc4ccccc4c1O3)CCCC2 (racemic) | 86.2
Nc1c2c(nc3c1C(c1ccc([N+](=O)[O-])cc1)c1ccc4ccccc4c1O3)CCCC2 (racemic) | 93

Consider the additional compound presented here.
Q: Report viability at 24 h, 3 µM for COc1ccc(C2c3ccc4ccccc4c3Oc3nc4c(c(N)c32)CCCC4)c(OC)c1 (racemic) please.
A: 84.2

----------
# key: entry, value: viability at 24 h, 1 µM
- ASSAY_REMARKS: in vitro
- PROTOCOL_CONDITIONS: human, HepG2 cells
- Description: Cytotoxicity against human HepG2 cells assessed as cell viability at 1 uM after 24 hrs by MTT assay relative to control
Please state the value followed by its unit.

Q: Report viability at 24 h, 1 µM for Nc1c2c(nc3c1C(c1ccc(Cl)c(Cl)c1)c1ccc4ccccc4c1O3)CCCC2 (racemic) please.
A: 97.5%

Q: Next record, please: COc1cc(C2c3ccc4ccccc4c3Oc3nc4c(c(N)c32)CCCC4)cc(OC)c1OC (racemic)
A: 96.5%

Q: Next record, please: COc1ccc(C2c3ccc4ccccc4c3Oc3nc4c(c(N)c32)CCCC4)c(OC)c1 (racemic)
A: 97.8%

Q: Next record, please: Nc1c2c(nc3c1C(c1ccc([N+](=O)[O-])cc1)c1ccc4ccccc4c1O3)CCCC2 (racemic)
A: 95%

----------
- ASSAY_REMARKS: in vitro
- PROTOCOL_CONDITIONS: human, HepG2 cells
- Description: Cytotoxicity against human HepG2 cells assessed as cell viability at 30 uM after 24 hrs by MTT assay relative to control
VALUE_KIND: viability at 24 h, 30 µM (%)
Value expressed in %; do not type the unit.

Q: Report viability at 24 h, 30 µM for Nc1c2c(nc3c1C(c1ccc(Cl)c(Cl)c1)c1ccc4ccccc4c1O3)CCCC2 (racemic) please.
A: 68.1

----------
# key: entry, value: viability at 24 h, 300 µM
- ASSAY_REMARKS: in vitro
- PROTOCOL_CONDITIONS: human, HepG2 cells
- Description: Cytotoxicity against human HepG2 cells assessed as cell viability at 300 uM after 24 hrs by MTT assay relative to control
Value expressed in %; do not type the unit.

Below, 3 compounds whose answers are already recorded.
COMPOUND | viability at 24 h, 300 µM [%]
Nc1c2c(nc3c1C(c1ccc([N+](=O)[O-])cc1)c1ccc4ccccc4c1O3)CCCC2 (racemic) | 72.1
Nc1c2c(nc3c1C(c1ccc(Cl)c(Cl)c1)c1ccc4ccccc4c1O3)CCCC2 (racemic) | 61
COc1cc(C2c3ccc4ccccc4c3Oc3nc4c(c(N)c32)CCCC4)cc(OC)c1OC (racemic) | 93.5

Consider the additional compound presented here.
Q: Report viability at 24 h, 300 µM for COc1ccc(C2c3ccc4ccccc4c3Oc3nc4c(c(N)c32)CCCC4)c(OC)c1 (racemic) please.
A: 74.8

----------
- ASSAY_REMARKS: in vitro
- PROTOCOL_CONDITIONS: human, HepG2 cells
VALUE_KIND: viability at 24 h, 30 µM
Please state the value followed by its unit.

MOLECULE | viability at 24 h, 30 µM
COc1cc(C2c3ccc4ccccc4c3Oc3nc4c(c(N)c32)CCCC4)cc(OC)c1OC (racemic) | 96.6%
COc1ccc(C2c3ccc4ccccc4c3Oc3nc4c(c(N)c32)CCCC4)c(OC)c1 (racemic) | 76.9%

Q: Report viability at 24 h, 30 µM for Nc1c2c(nc3c1C(c1ccc([N+](=O)[O-])cc1)c1ccc4ccccc4c1O3)CCCC2 (racemic) please.
A: 90.3%
